Listed here are binders together with their documented Current inhibition (%) at 100 nM antibody, Q-Patch, pH 6.0.
# MEASURED_TARGET: T1, human ASIC1 (human, UniProt P78348 1-528)
# T1 sequence: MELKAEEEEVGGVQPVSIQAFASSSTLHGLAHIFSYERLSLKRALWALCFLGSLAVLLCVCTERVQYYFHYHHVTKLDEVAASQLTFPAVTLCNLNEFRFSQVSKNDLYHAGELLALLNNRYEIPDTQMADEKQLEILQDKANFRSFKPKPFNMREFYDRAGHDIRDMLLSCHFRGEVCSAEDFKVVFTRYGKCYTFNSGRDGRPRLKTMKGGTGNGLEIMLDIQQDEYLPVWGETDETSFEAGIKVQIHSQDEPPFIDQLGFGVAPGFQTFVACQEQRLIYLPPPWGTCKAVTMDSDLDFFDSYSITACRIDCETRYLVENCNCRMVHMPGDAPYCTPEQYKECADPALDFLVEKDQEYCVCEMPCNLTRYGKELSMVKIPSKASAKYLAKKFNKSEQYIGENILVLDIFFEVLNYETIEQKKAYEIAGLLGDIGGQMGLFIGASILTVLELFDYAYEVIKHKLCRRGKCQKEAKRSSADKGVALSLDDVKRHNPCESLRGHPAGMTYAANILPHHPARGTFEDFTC
# TEST_NAME: cell-based or functional assay
TEST_READOUT: Current inhibition (%) at 100 nM antibody, Q-Patch, pH 6.0

[[record]]
binder = "H3M6726N (antibody, V domains shown, Chimeric: human variable, mouse constant domains; H3M prefix marks the Fc, isotype not spelled out) VH: EVQLLESGGVLVQPGGSLRLSCAASGFNFNNYDMSWVRQAPGKGLEWVSVISASGRNTYYADSVKGRFTISRDNSKISLYLQMNSLRPEDTAVYYCAKDHLVHYYYGMDVWGQGTTVTVSS VL: DIMMTQSPLSLSVTPGEPASISCRSSQSLLHSNGYNYLDWYLQKSGQSPHLLIYLGSNRASGVPDRFSGSGSGTDFTLKISRVEAEDGGVYYCMQALQTPRTFGQGTKVEIK"
experimental_value = 85

[[record]]
binder = "H1M6718N (antibody, mouse IgG1, V domains shown) VH: EVQLLESGGGLVQPGGSLRLSCAASGFTFSSFAMSWVRQAPGKGLEWVSGISGSGGGTHYADSVKGRFTISRDNSKNMVYLQMNSLRAEDTAAYYCAKEAYKWQPWGQGTLVTVSS VL: DIQMTQSPSTLSASVGDRVIITCRASQRISSWLAWYQQKPGKAPNLLIYKASILESGVPSRFSGSGSGTEFTLTISSLQPDDFATYYCQQYNSYSYTFGQGTKLEIK"
experimental_value = 100

[[record]]
binder = "H1M7101N (antibody, mouse IgG1, V domains shown) VH: EVQLLASGGGLVQTGGSLRLSCAASGFTFSSFAMSWVRQAPGKGLEWVSGISGSGGSTYYADSVKGRFTISRDNSKNTLYLQMNSLRAEDTAAYYCAKEAYKWQPWGQGIRVTVSS VL: DIQMTQSPSTLSASVGDRVTITCRASQSISSWLAWYQQKPGKAPNLLIYKTSNLESGVPSRFSGSGSGTEFTLTISSLQPDDFATYYCQQYNSYSYTFGQGTKLEIK"
experimental_value = 97

[[record]]
binder = "H3M6720N (antibody, V domains shown, Chimeric: human variable, mouse constant domains; H3M prefix marks the Fc, isotype not spelled out) VH: EVQLVESGGGLVQPGGSLKLSCAASGFTFSSFWMSWVRQAPGKGLEWVANIKQNGSETYYVDSVKGRFTISRDNTKNSLYLQMNSLRAEDTAIYYCARGGRIQLWSSWFDPWGQGTLVTVSS VL: AIQMTQSPSSLSASVGDRVTITCRASQGISNDLGWYQQKPGKAPKLLIYGASSLQTGVPSRFSGSGSGTDFTLTISSLQPEDFATYYCLQDFNYPYTFGQGTKLEIK"
experimental_value = 82

[[record]]
binder = "H4H6362P (antibody, V domains shown) VH: QVQLVESGGGVVQPGRSLRLSCEASGFTFGSYGMHWVRQAPGKGLEWMAVISYDGNSRYSADSVKGRFTISRDNSKNTLYLQMNSLRAEDTALYYCAKENHIAARRPGGLDVWGQGTTVTVSS VL: DIQMTQSPSSLSASVGDRVTITCRASQGISIYLAWYQQKPGKVPKLLIYAASSLQSGVPSRFSGSGSGTDFTLTISSLQPEDVATYFCQNYNIAPWTLGQGTKVEIK"
experimental_value = 29

[[record]]
binder = "H4H6366P (antibody, human IgG4, V domains shown) VH: EVQLVESGGDLIQPGGSLRLSCIASGFTFRGYAMSWVRQAPGEGLDWVSGISSGGGNTYYADSVKGRFTISRDNSKNTLYLQMNSLRVEDTAVYYCAKDRGGVRDFYYGLDVWGQGTTVTVSS VL: DIQMTQSPSTLSASVGDRVTITCRASQSIYSWLAWYQQKPGKAPKLLIYKASSLESGVPSRFSGSGSGTDFTLTISSLQPDDFTTYYCQQYLSYSRTFGQGTKVEIK"
experimental_value = 72

